From: patent US20250188033A1

# Experimental System: HsRPA1 DBD-AB (Homo sapiens, UniProt P27694 P27694:181-422)
# Sequence (P27694 181-422, one chain of several): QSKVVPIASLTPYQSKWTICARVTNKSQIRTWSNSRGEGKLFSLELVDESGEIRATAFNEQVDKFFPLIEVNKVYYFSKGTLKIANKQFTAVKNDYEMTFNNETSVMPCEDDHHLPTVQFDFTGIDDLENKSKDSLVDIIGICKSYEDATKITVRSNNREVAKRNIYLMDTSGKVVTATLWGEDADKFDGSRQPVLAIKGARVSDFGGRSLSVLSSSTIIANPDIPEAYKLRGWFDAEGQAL
# Protocol Notes: MST; 10 mM MgCl2, 10 mM NaCl, Tris pH 7.5, 22 C; not inhibited by JC-229
# Particulars: tags: 6xHis, pET28a (pSR15), E. coli; label: 5' Cy5
Measured Quantity: Kd (nM)
Entry rule: numbers only, all in nM.

Consider the binder TTTTTTTTTTTTTTTTTTTTTTTTTTTTTTTT (ssDNA) [5'Cy5-dT32] and give its measured Kd.
48
